Values compiled from PubChem BioAssay AID504861.

system: HEK293T viability, CellTiter-Glo ATP luminescence, 48 h; experiment: HEK293T cell viability reduction, dose response, cytotoxicity control for LMP1 NF-kB inhibitor project, CellTiter-Glo luminescence, cherry-picks (AID 504861)
Active and inactive are the calls of the source.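 The calls were made as follows: active = compounds lowering cell viability signal with fitted half-maximal concentration at most ten times their highest tested concentration; inconclusive = flat fit with 30 to 70% signal loss, or poor fit; inactive = the rest.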
For each entry below, report its AC50 value.

// lookup AC50 for `C/C(=N\NC(=O)c1cccc(Br)c1)c1ccccn1`
3.59 µM

Quick check: AC50 of CC(=O)NC(c1ccc(Cl)cc1Cl)c1ccc2cccnc2c1O (configuration not stated) ?
1.63 µM

What does the data say about its AC50? Entry: `CC(=NNC(=S)N1CCCCCC1)c1ccccn1`
2.18 µM

Sample CCC(=O)NC(c1cc(Cl)c2cccnc2c1O)C(C)C (configuration not stated) — what was its AC50?
9.32 µM

Fill blank: measured AC50 of the molecule `CC(=NNC(=S)Nc1ccccc1)c1ccccn1` is ____.
1.56 µM

Need AC50 of `CCN1CCN(Cc2ccc(NC(=O)c3ccc(C)c(NC(=O)c4cc(-c5ccc(Br)cc5)n[nH]4)c3)cc2C(F)(F)F)CC1` , thanks.
15.6 µM

State the recorded AC50 for this entry: CCN(CC)c1ccc(C(NC(=O)C(C)C)c2ccc3cccnc3c2O)cc1 (configuration not stated)
4.34 µM

What value of measured AC50 is listed for CCCCC(=O)NC(c1ccc(OC)cc1)c1ccc2cccnc2c1O (configuration not stated) ?
16.2 µM

// AC50 lookup, key: `Cc1[nH]n(-c2ccccc2)c(=O)c1/C=N/Nc1nncc(-c2ccccc2)n1`
2.64 µM

Would you kindly share the measured AC50 for `O=C(N/N=C/c1sc2ccccc2c1O)c1cccc2ccccc12` ?
4.96 µM

Requested field: AC50. Item: `Cc1ccc(C(=O)Nc2ccc3c(c2)OCCO3)c(Cl)c1`
> 26 µM (inactive)

Query (molecule): CCCCC(=O)NC(c1ccc(Cl)cc1)c1ccc2cccnc2c1O (configuration not stated) ; field requested: AC50
4.35 µM
